procedure_summary: Pharmacokinetics test in SD rats (iv and po)
Type: in vivo
measurement_setup: male, SD, rat, in vivo, iv, 1 mg/kg
Description: Example 37: Pharmacokinetics Test Experimental animals: six healthy adult male SD rats (purchased from Hunan Slack King of Laboratory Animal Co. Ltd.) were divided into two groups, three rats in each group, and the two grops were given intravenous injection and oral administration respectively. Drug preparation: a quantity of a compound of the present invention was weighed, and 5% DMSO, 10% Kolliphor HS15 and 85% saline (0.9%) were added to give target concentrations of the compound solution. […]
clearance values, listed per item
Numeric answer only, unit mL/min/kg assumed.

smiles_notation=O=C(O)c1ccc2c(c1)Oc1ccc(OCc3c(-c4c(Cl)cccc4Cl)noc3C3CC3)cc1S(=O)(=O)C2 outcome_measure=clearance result=18
smiles_notation=CC(C)c1cnn(-c2c(Cl)cccc2Cl)c1COc1ccc2c(n1)CCc1ccc(C(=O)O)cc1O2 outcome_measure=clearance result=50

[Q] Need clearance of O=C(O)c1ccc2c(c1)Oc1cnc(OCc3c(-c4c(Cl)cccc4Cl)noc3C3CC3)cc1CC2 , thanks.
[A] 19
